System: Escherichia coli TOP10;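 also: peptides expressed intracellularly from a pBAD plasmid library in pooled LB shake-flask culture, induced with 0.3% L-arabinose, DNA abundance read by NGS, three biological replicates, DESeq2 with apeglm shrinkage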
measurement protocol: shrunken log2 fold change of peptide-encoding DNA abundance (4.5 h post-induction vs induction); higher = less antimicrobial activity (less host growth inhibition)
study conditions: time post-induction: 4.5 h; library: site-saturation at positions 5, 18, 19, 20
observed property: shrunken log2 fold change

| sequence string | observed property | test result |
| --- | --- | --- |
| RRIRKRPPRLPRPRPRPGNYPRP | shrunken log2 fold change | -0.113 |
| RRIRKRPPRLPRPRPRPAVTPRP | shrunken log2 fold change | 0.0318 |
| RRIRSRPPRLPRPRPRPWAAPRP | shrunken log2 fold change | 0.327 |
| RRIRDRPPRLPRPRPRPNVVPRP | shrunken log2 fold change | -0.0354 |
| RRIRKRPPRLPRPRPRPGESPRP | shrunken log2 fold change | 0.0841 |
| RRIRERPPRLPRPRPRPNPVPRP | shrunken log2 fold change | -0.424 |
| RRIRRRPPRLPRPRPRPAPYPRP | shrunken log2 fold change | 0.408 |
| RRIRLRPPRLPRPRPRPCNKPRP | shrunken log2 fold change | -0.686 |
| RRIRIRPPRLPRPRPRPQNSPRP | shrunken log2 fold change | -0.595 |
| RRIRNRPPRLPRPRPRPECYPRP | shrunken log2 fold change | -0.329 |
| RRIRRRPPRLPRPRPRPCVQPRP | shrunken log2 fold change | 0.171 |
| RRIRARPPRLPRPRPRPDWKPRP | shrunken log2 fold change | -0.108 |
| RRIRARPPRLPRPRPRPQMGPRP | shrunken log2 fold change | -0.0713 |
| RRIRIRPPRLPRPRPRPNEYPRP | shrunken log2 fold change | -0.182 |
| RRIRSRPPRLPRPRPRPLSCPRP | shrunken log2 fold change | 0.0284 |
